target: Nox4 (Homo sapiens); assay: Nox4 activity in whole cells; settings: read-out: EC50 for inhibition of Nox4 activity in whole cell assay; HEK/Nox4rb cells; ns = no significant inhibition
Sequence (Q9NPH5 whole entry, species assumed): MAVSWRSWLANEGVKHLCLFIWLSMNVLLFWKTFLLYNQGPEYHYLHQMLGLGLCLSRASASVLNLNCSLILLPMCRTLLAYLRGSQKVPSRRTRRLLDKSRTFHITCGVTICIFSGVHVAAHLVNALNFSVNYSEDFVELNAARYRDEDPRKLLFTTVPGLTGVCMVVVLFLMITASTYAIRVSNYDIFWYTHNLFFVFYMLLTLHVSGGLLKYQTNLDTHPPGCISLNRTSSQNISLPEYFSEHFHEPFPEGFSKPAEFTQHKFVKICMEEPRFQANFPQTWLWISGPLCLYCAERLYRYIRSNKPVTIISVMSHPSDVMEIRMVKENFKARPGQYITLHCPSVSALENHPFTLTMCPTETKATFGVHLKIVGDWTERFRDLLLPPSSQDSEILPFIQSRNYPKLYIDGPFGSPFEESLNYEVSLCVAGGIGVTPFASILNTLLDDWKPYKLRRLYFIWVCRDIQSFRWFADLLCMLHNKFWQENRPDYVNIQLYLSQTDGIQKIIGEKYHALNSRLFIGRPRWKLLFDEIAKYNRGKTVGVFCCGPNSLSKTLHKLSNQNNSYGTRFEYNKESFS
Sequence (P13498 2-195 partner limits assumed, species assumed): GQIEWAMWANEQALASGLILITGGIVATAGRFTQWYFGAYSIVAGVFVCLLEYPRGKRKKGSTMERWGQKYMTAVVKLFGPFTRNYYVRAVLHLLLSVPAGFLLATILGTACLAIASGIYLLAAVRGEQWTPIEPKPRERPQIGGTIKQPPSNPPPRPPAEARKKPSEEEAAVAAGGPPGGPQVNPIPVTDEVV
Assay readout: pEC50
Keep it numeric: pEC50 is minus log10 of the concentration in mol/L.

Query block: Entry O=c1c2ccccc2sn1-c1ccccc1 has what pEC50?
Result block: 5.10

====

biological target: bis-SH3 domain of p47phox (binding of the PRD of p22phox) (Homo sapiens, UniProt P14598); assay: Fluorescence polarization; conditions: read-out: Potency in the binding assay; FP assay
Sequence (P14598 156-285): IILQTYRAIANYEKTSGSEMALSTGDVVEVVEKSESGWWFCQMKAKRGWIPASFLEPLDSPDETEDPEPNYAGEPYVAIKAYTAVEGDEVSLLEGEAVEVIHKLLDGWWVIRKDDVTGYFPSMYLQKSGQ
Assay readout: pIC50
Keep it numeric: pIC50 is minus log10 of the concentration in mol/L.

Query block: For the record COC(=O)c1ccc(-n2sc3ccccc3c2=O)cc1 [l] , what value of pIC50 is listed for bis-SH3 domain of p47phox (binding of the PRD of p22phox) (Homo sapiens, UniProt P14598)?
Result block: 6.30

====

biological target: Nox1 (Homo sapiens); test: Nox1 activity in whole cells; settings: read-out: EC50 for inhibition of Nox1 activity in whole cell assay; HEK/Nox1rb cells; ns = no significant inhibition
Sequence (Q8NFA2 whole entry partner): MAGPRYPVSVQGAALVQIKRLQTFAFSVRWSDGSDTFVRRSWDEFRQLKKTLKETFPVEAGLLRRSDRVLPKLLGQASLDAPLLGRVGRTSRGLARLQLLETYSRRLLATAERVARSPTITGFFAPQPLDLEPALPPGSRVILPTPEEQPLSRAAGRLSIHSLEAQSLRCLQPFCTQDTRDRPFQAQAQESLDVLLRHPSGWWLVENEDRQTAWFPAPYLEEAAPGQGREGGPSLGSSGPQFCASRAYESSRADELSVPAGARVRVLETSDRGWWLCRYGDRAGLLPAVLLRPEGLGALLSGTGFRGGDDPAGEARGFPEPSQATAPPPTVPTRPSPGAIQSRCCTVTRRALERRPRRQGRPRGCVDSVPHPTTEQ
Sequence (Q9Y5S8 whole entry): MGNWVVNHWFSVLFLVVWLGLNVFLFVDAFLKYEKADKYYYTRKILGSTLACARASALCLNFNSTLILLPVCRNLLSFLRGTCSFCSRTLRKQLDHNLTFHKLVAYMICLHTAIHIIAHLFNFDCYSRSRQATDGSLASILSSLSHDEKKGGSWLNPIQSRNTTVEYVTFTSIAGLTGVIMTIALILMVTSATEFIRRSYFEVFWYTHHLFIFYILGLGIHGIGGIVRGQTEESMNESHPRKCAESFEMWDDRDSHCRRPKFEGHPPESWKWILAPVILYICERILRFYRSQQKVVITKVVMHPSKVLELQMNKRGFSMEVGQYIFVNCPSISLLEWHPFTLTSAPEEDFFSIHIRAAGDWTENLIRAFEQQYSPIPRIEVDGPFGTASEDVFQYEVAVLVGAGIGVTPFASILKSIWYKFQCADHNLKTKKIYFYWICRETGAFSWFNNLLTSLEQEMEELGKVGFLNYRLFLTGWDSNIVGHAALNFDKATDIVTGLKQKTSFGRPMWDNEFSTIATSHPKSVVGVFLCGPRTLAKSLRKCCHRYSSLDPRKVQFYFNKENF
Assay readout: EC50 (nM)
Give just the numeric value; nM need not be written.

Query block: Entry O=c1c2ccccc2sn1-c1ccccc1 has what EC50?
Result block: 3000

====

biological target: Nox2 (Homo sapiens); assay: Nox2 activity in intact PMA-stimulated neutrophils; conditions: read-out: EC50 for inhibition of Nox2 activity in whole cell assay; human neutrophils; ns = no significant inhibition
Sequence (P14598 whole entry partner): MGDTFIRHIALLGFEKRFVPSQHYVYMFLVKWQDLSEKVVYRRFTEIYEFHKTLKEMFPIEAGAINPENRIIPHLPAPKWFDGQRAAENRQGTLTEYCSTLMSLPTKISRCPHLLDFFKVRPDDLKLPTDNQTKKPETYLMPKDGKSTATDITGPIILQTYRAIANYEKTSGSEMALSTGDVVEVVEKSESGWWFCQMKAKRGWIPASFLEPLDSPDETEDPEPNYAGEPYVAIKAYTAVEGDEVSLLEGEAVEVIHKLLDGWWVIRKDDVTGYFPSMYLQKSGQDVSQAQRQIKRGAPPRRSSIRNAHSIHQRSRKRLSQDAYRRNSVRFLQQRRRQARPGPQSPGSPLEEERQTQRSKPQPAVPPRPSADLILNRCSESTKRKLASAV
Sequence (P04839 2-570 limits assumed): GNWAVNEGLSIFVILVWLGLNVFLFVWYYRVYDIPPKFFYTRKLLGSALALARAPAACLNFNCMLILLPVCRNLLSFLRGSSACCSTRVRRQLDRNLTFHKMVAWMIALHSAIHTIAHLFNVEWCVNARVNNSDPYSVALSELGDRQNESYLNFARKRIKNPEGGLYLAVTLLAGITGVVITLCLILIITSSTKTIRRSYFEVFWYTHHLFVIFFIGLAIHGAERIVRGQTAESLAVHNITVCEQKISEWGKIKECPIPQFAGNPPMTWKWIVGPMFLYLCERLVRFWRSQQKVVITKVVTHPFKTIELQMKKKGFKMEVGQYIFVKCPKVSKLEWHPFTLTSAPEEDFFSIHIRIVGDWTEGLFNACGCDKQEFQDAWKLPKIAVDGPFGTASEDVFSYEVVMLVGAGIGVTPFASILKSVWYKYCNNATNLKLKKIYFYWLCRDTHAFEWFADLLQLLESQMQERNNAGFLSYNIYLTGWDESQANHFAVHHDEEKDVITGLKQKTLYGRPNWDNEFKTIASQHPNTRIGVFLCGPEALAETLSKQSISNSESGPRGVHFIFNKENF
Assay readout: EC50 (nM)
Give just the numeric value; nM need not be written.

Query block: For the record O=c1c2ccccc2sn1-c1ccccc1 [Thr101] , what value of EC50 is listed for Nox2 (Homo sapiens)?
Result block: 300
